- targetSystem: T1, human GIP receptor (human, UniProt P48546 22-466)
- T1 sequence (looked up): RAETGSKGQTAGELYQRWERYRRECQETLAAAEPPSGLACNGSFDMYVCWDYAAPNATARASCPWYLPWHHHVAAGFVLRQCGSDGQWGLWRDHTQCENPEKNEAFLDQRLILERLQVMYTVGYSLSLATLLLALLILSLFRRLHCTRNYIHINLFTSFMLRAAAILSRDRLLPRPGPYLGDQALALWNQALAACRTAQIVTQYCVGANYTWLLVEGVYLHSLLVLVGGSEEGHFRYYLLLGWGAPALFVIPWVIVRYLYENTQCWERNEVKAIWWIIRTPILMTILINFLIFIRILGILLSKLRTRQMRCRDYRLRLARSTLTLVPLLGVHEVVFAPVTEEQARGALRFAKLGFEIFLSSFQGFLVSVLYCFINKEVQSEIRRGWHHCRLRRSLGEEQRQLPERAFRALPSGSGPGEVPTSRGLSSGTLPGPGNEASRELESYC
- experimentalProtocol: cell-based or functional assay
Starred links: 1 amine or outer side, 2 acyl side, 3 side chain; linkers in the order of their positions; H or OH if unused. Non-standard residues stand in square brackets, D forms with d. Groups on a side chain read outwards from the residue. No end group written: not given here. *: point of attachment. C18 diacid = O=C(O)CCCCCCCCCCCCCCCCC(=O)*; γGlu = O=C(O)[C@H](CCC(=O)[*:2])N[*:1]; AEEA = NCCOCCOCC(=O)O; Aib = CC(C)(N)C(=O)O; Ahx = NCCCCCC(=O)O
measuredQuantity: EC50 CreLuc hGIPR 100% hP (nM)
Report the figure in nM without appending any unit label.

For orientation, consider the following solved cases.
{"columns": ["binder", "EC50 CreLuc hGIPR 100% hP / nM"],
 "data": [
  ["Y[Aib]EGTFTSDYSI[Aib]LEKQAQ[Aib]AFVEWLIKGGPSSYASLRHYYNWLTRQRY-NH2 (not fully specified (residue 28)) [Compound 126]", 1.27],
  ["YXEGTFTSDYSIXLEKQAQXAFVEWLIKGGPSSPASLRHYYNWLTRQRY (Aib at 2, 13, 20; K28 side chain: C20DA-gGlu-gGlu-gGlu-gGlu-gGlu-OEG-OEG; C-terminal NH2) [Compound 120]", 1.44],
  ["YXEGTFTSDYSIXLEKQAQXAFVEWLIKGGPSSGASLRHYYNWXTRQRY (Aib at 2, 13, 20; Tle at 44; K28 side chain: C20DA-gGlu-gGlu-gGlu-gGlu-gGlu-gGlu-eLys; C-terminal NH2) [Compound 137]", 1.5],
  ["Y[Aib]EGTFTSDYSI[Aib]LEKQAQ[Aib]EFVQWLIK([γGlu-γGlu-γGlu-γGlu-γGlu-γGlu-C18 diacid])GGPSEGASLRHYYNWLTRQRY-NH2 [Compound 151]", 1.28],
  ["YXEGTFTSDYSIXLEKQAQXAFVEWLIKGGPSSGVSLRHYYNWLTRQRY (Aib at 2, 13, 20; K28 side chain: C20DA-gGlu-gGlu-gGlu-gGlu-gGlu-gGlu-eLys; C-terminal NH2) [Compound 96]", 1.07],
  ["YXEGTFTSDYSIXLEKQAQXAFVEWLIKGGPSSGASLRHYXNWLTRQRY (Aib at 2, 13, 20; Tle at 41; K28 side chain: C20DA-gGlu-gGlu-gGlu-gGlu-gGlu-gGlu-eLys; C-terminal NH2) [Compound 133]", 2.28],
  ["Y[Aib]EGTFTSDYSI[Aib]LEKQAQ[Aib]AFVQWLIK([Ahx-γGlu-γGlu-γGlu-γGlu-γGlu-γGlu-C18 diacid])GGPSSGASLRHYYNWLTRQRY-NH2 [Compound 139]", 1.04],
  ["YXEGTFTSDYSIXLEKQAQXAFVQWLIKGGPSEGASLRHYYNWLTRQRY (Aib at 2, 13, 20; NMeQ at 47; K28 side chain: C20DA-gGlu-gGlu-gGlu-gGlu-gGlu-gGlu-eLys; C-terminal NH2) [Compound 115]", 1.89]
]}

Measured EC50 CreLuc hGIPR 100% hP of Y[Aib]EGTFTSDYSI[Aib]LEKQAQ[Aib]EFVQWLIK([AEEA-AEEA-γGlu-γGlu-γGlu-C18 diacid])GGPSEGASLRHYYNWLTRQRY-NH2 [Compound 160] : 0.91

Measured EC50 CreLuc hGIPR 100% hP of YXEGTFTSDYSIXLEKQAQXAFVEWLIKGGPSSGASVRHYYNWLTRQRY (Aib at 2, 13, 20; K28 side chain: C20DA-gGlu-gGlu-gGlu-gGlu-gGlu-gGlu-eLys; C-terminal NH2) [Compound 117] : 1.18

Measured EC50 CreLuc hGIPR 100% hP of Y[Aib]EGTFTSDYSI[Aib]LEKQAQ[Aib]AFVEWLIK([AEEA-AEEA-γGlu-γGlu-γGlu-γGlu-C18 diacid])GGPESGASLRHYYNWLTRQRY-NH2 [Compound 163] : 0.87

Measured EC50 CreLuc hGIPR 100% hP of YXEGTFTSDYSIXLEKQAQXAFIEWLIKGGPSSGASLRHYYNWLTRQRY (Aib at 2, 13, 20; K28 side chain: C20DA-gGlu-gGlu-gGlu-Glu-gGlu-gGlu-eLys; C-terminal NH2) [Compound 130] : 0.98

Measured EC50 CreLuc hGIPR 100% hP of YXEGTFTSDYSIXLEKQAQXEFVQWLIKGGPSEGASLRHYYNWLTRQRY (Aib at 2, 13, 20; K28 side chain: C18DA-gGlu-gGlu-gGlu-gGlu-gGlu; C-terminal NH2) [Compound 141] : 1.32
